The reported numbers originate from ChEMBL document CHEMBL1130213.

Here the recorded pEC50 is given for each entry.
# target-entity: Metabotropic glutamate receptor 2 (Homo sapiens)
# Sequence (Q14416 whole entry): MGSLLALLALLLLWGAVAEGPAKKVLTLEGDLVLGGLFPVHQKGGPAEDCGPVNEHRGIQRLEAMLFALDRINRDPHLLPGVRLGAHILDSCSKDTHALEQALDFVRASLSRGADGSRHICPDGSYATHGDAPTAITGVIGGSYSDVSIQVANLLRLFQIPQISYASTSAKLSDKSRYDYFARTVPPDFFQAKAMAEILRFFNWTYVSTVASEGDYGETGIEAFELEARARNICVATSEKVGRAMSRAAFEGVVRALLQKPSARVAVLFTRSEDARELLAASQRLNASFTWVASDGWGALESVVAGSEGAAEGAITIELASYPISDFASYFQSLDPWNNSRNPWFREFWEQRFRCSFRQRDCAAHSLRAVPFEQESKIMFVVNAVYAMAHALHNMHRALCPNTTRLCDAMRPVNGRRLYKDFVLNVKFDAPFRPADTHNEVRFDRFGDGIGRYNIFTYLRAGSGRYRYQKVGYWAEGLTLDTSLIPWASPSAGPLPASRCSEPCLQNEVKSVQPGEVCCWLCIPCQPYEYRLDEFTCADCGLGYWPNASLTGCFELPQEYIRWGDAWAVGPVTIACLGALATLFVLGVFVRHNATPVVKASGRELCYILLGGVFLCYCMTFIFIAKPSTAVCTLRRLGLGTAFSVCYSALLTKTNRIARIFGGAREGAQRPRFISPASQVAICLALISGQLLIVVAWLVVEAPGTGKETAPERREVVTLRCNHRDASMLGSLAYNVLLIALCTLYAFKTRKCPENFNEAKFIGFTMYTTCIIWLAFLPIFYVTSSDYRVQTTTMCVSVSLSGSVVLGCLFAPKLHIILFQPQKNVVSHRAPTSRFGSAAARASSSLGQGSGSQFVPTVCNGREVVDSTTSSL
# protocol-description: Agonist activity against Metabotropic glutamate receptor 2 expressed in HEK 293 cells was evaluated by measuring total inositol phosphate accumulation
# Type: functional, cell-based, HEK293
pEC50: −log10 of the molar value.

- mol-smiles: "N[C@]1(C(=O)O)CC[C@H](C(=O)O)C1"
  limit-qualifier: "="
  pEC50: 3.96
- mol-smiles: "N[C@]1(C(=O)O)CC[C@@H](C(=O)O)C1"
  limit-qualifier: "<"
  pEC50: 3.00
- mol-smiles: "N[C@@]1(C(=O)O)CC[C@@H](C(=O)O)C1"
  limit-qualifier: "="
  pEC50: 4.74
- mol-smiles: "N[C@@]1(C(=O)O)CC[C@H](C(=O)O)C1"
  limit-qualifier: "="
  pEC50: 4.89

###

# target-entity: UniProt Q14416
# protocol-description: Agonist activity against Metabotropic glutamate receptor 2 expressed in HEK 293 cells was evaluated by measuring total inositol phosphate accumulation; No effect at 1 mM
# Assay type: functional, cell-based
# run-parameters: hek293

- compound: "NC1(C(=O)O)CC(C(=O)O)C(C(=O)O)C1 (racemic)"
  EC50: "No effect"
- compound: "NC1(C(=O)O)C[C@@H](C(=O)O)[C@H](C(=O)O)C1"
  EC50: "No effect"
- compound: "NC1(C(=O)O)C[C@H](C(=O)O)[C@@H](C(=O)O)C1"
  EC50: "No effect"
- compound: "N[C@@]1(C(=O)O)C[C@H](C(=O)O)[C@H](C(=O)O)C1"
  EC50: "No effect"
- compound: "N[C@]1(C(=O)O)C[C@H](C(=O)O)[C@H](C(=O)O)C1"
  EC50: "No effect"
